assayedTarget: Focal adhesion kinase 1 (Homo sapiens) (UniProt Q05397)
Sequence (Q05397 whole entry, looked up): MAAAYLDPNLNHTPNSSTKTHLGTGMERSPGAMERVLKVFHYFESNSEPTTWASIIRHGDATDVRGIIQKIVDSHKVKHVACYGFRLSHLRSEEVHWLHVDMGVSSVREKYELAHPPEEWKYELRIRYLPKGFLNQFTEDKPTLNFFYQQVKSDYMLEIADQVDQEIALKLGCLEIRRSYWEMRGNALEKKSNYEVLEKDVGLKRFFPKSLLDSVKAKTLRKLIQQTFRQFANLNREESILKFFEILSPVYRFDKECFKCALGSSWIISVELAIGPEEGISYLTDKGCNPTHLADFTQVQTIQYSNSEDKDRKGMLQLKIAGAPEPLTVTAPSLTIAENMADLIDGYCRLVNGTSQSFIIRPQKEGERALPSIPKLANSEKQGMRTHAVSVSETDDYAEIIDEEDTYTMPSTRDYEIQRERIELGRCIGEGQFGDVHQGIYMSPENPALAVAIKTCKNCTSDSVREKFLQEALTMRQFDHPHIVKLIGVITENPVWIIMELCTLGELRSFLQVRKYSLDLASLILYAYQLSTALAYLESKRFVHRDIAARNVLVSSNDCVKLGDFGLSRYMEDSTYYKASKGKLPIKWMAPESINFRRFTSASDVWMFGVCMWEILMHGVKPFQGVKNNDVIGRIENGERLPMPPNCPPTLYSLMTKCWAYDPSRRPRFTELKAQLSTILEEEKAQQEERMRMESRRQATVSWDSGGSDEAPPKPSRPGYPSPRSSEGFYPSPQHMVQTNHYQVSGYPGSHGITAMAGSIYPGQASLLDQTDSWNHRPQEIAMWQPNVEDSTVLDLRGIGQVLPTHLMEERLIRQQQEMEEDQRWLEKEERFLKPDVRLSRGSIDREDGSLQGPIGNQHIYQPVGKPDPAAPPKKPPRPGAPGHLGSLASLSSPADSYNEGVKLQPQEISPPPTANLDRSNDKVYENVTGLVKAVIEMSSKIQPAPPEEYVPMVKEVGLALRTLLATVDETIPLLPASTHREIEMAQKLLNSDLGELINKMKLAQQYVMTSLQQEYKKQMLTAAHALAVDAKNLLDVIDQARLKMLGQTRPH
protocolSummary: small-molecule microarray binders of FAK, primary screen, biochemical, 635/667 nm fluorescence, BSA, DTT (AID 1130);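 further: composite of spot emission at 667 nm and signal to noise over triplicate slides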
conditionSummary: PTK2 binding, 635 nm fluorescence, higher = more signal
attributeMeasured: composite z-score
API note: the answer field is a bare number with no unit suffix.

Some solved cases for reference:
>>> reportedvalue("CCOC(=O)C1=CC[C@@H](c2ccccc2)N(S(=O)(=O)c2ccc(C)cc2)[C@@H]1C#N")
0.165
>>> reportedvalue("C=CCNC(=O)[C@@H]1[C@H]2C(=O)O[C@H](c3ccccc3)[C@H](c3ccccc3)N2[C@H](c2ccc(OCCO)cc2)[C@@]12C(=O)Nc1ccc(C#CC3=CCCCC3)cc12")
1.08
>>> reportedvalue("CCOC(=O)C[C@H]1[C@H](OC(=O)c2ccccc2-c2ccccc2)[C@@H](NC(=O)CC(C)C)c2cc(OCCCO)ccc2N1C(=O)c1ccccc1")
-0.0647

Query: I would be grateful if you could share the reported composite z-score for COCCCNC(=O)[C@]1(Cc2ccccc2CN=[N+]=[N-])N=C(c2ccc(OCCCO)cc2)O[C@@H]1c1ccccc1N=[N+]=[N-] .
Result: 0.641

Query: I would be grateful if you could share the reported composite z-score for COc1cccc(C)c1NC(=O)O[C@H]1[C@H](OC(=O)Nc2ccc3c(c2)OCO3)[C@H](OC(=O)Nc2ccc3c(c2)OCO3)[C@@H](OC)O[C@@H]1CO .
Result: 0.197

Query: I would be grateful if you could share the reported composite z-score for O=C1N(Cc2ccccc2)Cc2ccccc2C[C@@]12COC(c1ccc(OCCCO)cc1)=N2 .
Result: 0.622

Query: I would be grateful if you could share the reported composite z-score for COCCOC(=O)N1C(=O)[C@@]2(c3cc(C#CCNC(N)=O)ccc31)[C@H](c1ccc(O)cc1)N1[C@H](c3ccccc3)[C@H](c3ccccc3)OC(=O)[C@H]1[C@@H]2C(=O)N1CCc2cc(OC)c(OC)cc2C1 .
Result: 1.33

###

protocolSummary: small-molecule microarray binders of probe aEGFR, primary screen, biochemical, biotinylated probe, 635/667 nm fluorescence (AID 1097);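 further: probe is a biotinylated anti-EGFR antibody binding compounds printed on slides; score combines fluorescence near 667 nm and signal to noise of each spot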
conditionSummary: higher = more signal
Just so you know, the groups by composite z-score go like this: low (below -0.1), medium (-0.1 to below 0.07), high (0.07 or more)

Use the examples below as a reference point.
>>> grouplabel("CCCCC=C[C@@H](NC(=O)C(C)(C)C)c1ccccc1")
"high"
>>> grouplabel("Cc1ccc(S[C@]2(C(=O)NCc3ccccc3)CC(=O)N(Cc3ccccc3Cl)[C@@H]2c2ccc(CO)cc2)cc1")
"low"
>>> grouplabel("C=CCOC(=O)[C@@H]1[C@H]2C(=O)O[C@H](c3ccccc3)[C@H](c3ccccc3)N2[C@H](c2ccc(OCCOC(=O)[C@@H]3C[C@@H]4C(=O)N[C@@H](CC(C)C)C(=O)N4[C@@H]3c3ccc(O)cc3)cc2)[C@@]12C(=O)Nc1ccc(I)cc12")
"high"
>>> grouplabel("C=CC[C@]1(C(N)=O)N=C(c2ccc(OCCCO)cc2)O[C@H]1c1ccccc1N=[N+]=[N-]")
"medium"
>>> grouplabel("C[C@]12C(=O)N(CCO)[C@@H]3C(=O)N(c4ccc(Cl)cc4)CC=CC31O[C@@H]1/C=C\\CCCOC(=O)C12 (some centres not stated)")
"low"

Query: Please let me know in which category the item C=CCNC(=O)[C@@H]1[C@H]2C(=O)O[C@H](c3ccccc3)[C@H](c3ccccc3)N2[C@H](c2ccc(OCCO)cc2)[C@@]12C(=O)N(C(=O)OCCOC)c1ccccc12 belongs.
Result: medium

Query: Please let me know in which category the item COC(=O)C1=CC(CCCO)=CC(c2ccc(CN3CCCC3)cc2)N(C)C=C1C(=O)OC (configuration not stated) belongs.
Result: high

Query: Please let me know in which category the item CCOC(=O)C1=CC[C@@H](c2ccccc2)N(S(=O)(=O)c2ccc(C)cc2)[C@@H]1C#N belongs.
Result: medium

###

Each entry below lists one item and its recorded z-score value.
protocolSummary: P. aeruginosa biofilm formation inhibitors, primary screen, PAO1 strain, BacTiter-Glo luminescence, LB-PBS (AID 1144)
conditionSummary: 12 h, higher = more signal
API note: the answer field is a bare number with no unit suffix.

>>> reportedvalue("[N-]=[N+]=NCc1ccccc1C[C@@]1(C(N)=O)N=C(c2ccc(OCCCO)cc2)O[C@@H]1c1ccccc1N=[N+]=[N-]")
1.33
>>> reportedvalue("C=CCC(OC(C)=O)[C@@H]1[C@@H](N(Cc2ccc(-c3ccccc3)cc2)C(=O)Cc2ccc(OC)cc2)c2cc(OCCCO)ccc2N1C(=O)Cc1ccc(OC)cc1 (some centres not stated)")
1.04
>>> reportedvalue("COc1ccc([Si](C)(C)[C@@H]2[C@@H](CC(=O)N(CCO)Cc3ccccc3)O[C@]3(C(=O)N(Cc4cccc(I)c4)c4ccccc43)[C@H]2C)cc1")
0.191
>>> reportedvalue("COC(=O)[C@@]1(Cc2ccc(F)cc2)[C@H]2c3cc(C(=O)N4CCCC4)n(Cc4ccc(C(F)(F)F)nc4)c3C[C@H]2CN1C(=O)c1ccccc1")
0.193

Query: I would be grateful if you could share the reported z-score for COCCCNC(=O)[C@@]1(c2ccc([N+](=O)[O-])cc2)CC(=O)N(C2CCCCC2)[C@@H]1c1ccc(CO)cc1I .
Result: 0.239

Query: I would be grateful if you could share the reported z-score for O=C1c2ccccc2[C@](Cc2ccccc2I)(C(=O)NCCN2CCOCC2)[C@H](c2ccc(CO)cc2)N1Cc1ccccc1C(F)(F)F .
Result: 0.588

Query: I would be grateful if you could share the reported z-score for [N-]=[N+]=NCc1ccccc1[C@H]1OC(c2ccc(OCCCO)cc2)=N[C@@]1(Cc1ccccc1N=[N+]=[N-])C(N)=O .
Result: -1.13

###

assayedTarget: Torsin-1A-interacting protein 1 (Homo sapiens) (UniProt Q5JTV8)
Sequence (Q5JTV8 whole entry, looked up): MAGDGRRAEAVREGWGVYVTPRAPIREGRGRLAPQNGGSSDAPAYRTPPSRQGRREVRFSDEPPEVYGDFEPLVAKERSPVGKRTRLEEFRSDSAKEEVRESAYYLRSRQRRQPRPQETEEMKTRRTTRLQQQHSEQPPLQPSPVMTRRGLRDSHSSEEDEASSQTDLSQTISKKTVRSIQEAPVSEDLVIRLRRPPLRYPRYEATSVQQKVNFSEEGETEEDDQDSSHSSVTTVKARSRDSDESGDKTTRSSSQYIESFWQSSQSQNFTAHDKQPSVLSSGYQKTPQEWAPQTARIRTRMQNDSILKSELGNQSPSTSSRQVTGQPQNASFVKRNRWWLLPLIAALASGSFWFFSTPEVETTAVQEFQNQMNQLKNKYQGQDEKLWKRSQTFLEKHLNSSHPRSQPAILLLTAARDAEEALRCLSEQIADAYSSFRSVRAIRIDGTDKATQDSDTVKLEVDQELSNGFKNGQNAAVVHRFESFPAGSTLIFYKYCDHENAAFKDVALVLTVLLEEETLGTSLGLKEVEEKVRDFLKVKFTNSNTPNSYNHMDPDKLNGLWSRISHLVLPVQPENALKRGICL
protocolSummary: LAP1 binders from COS7 cell lysate, primary screen, small-molecule microarray, 635/667 nm fluorescence (AID 1116)
conditionSummary: COS7-hLAP1 lysate binding, 635 nm fluorescence, higher = more signal
Would you please tag the item Met when its composite z-score is 0.8 or above, and Not met when it is below?

Use the examples below as a reference point.
>>> grouplabel("C=C(C(=O)CC[C@@H](OC(=O)c1ccccc1-c1ccccc1C(=O)O)c1ccc(CO)o1)C(C)C")
"Met"
>>> grouplabel("COC(=O)[C@@]1(Cc2ccc(OC)cc2)[C@@H]2[C@@H](CC(=O)[C@H]2CC(=O)C(=O)N(C)C)CN1C(=O)c1ccccc1")
"Met"
>>> grouplabel("C=CCOC(=O)[C@@H]1[C@H]2C(=O)O[C@H](c3ccccc3)[C@H](c3ccccc3)N2[C@H](c2ccc(OCCOC(=O)[C@@H]3C[C@@H]4C(=O)N[C@@H](CC(C)C)C(=O)N4[C@@H]3c3ccc(O)cc3)cc2)[C@@]12C(=O)Nc1ccc(I)cc12")
"Not met"
>>> grouplabel("O=C1O[C@H](c2ccccc2)[C@H](c2ccccc2)N2[C@H]1[C@@H](C(=O)Nc1nc3ccccc3s1)[C@]1(C(=O)Nc3ccccc31)[C@H]2c1ccccc1OCCO")
"Met"
>>> grouplabel("C=CCC(OC(C)=O)[C@@H]1[C@@H](N(Cc2cccc3ccccc23)C(=O)c2ccc(C)cc2)c2cc(OCCCO)ccc2N1C(=O)Cc1ccc2ccccc2c1 (some centres undefined)")
"Not met"

Query: Check the entry C=C(COC)C(=O)CC[C@@H](OC(=O)c1ccccc1-c1ccccc1C(=O)O)c1ccccc1OCCO : does composite z-score equal or exceed 0.8?
Result: Met

Query: Check the entry C#CCN(C(=O)OC(C)(C)C)[C@H](CO)c1ccccc1 : does composite z-score equal or exceed 0.8?
Result: Not met

Query: Check the entry CN1C2C=C(c3ccc(CO)cc3)C(C3C(=O)N(C(N)=O)C(=O)C32)C1C1CC1 (centres undefined) : does composite z-score equal or exceed 0.8?
Result: Not met

Query: Check the entry COc1ccc([Si](C)(C)[C@H]2[C@H](CC(=O)N3CCC[C@H]3CO)O[C@@]3(C(=O)N(C)c4ccccc43)[C@@H]2C)cc1 : does composite z-score equal or exceed 0.8?
Result: Met

Query: Check the entry COc1ccc([Si](C)(C)[C@@H]2[C@@H](CC(=O)N3Cc4ccccc4C[C@H]3CO)O[C@]3(C(=O)N(Cc4ccc(I)cc4)c4ccccc43)[C@H]2C)cc1 : does composite z-score equal or exceed 0.8?
Result: Not met

###

protocolSummary: PSAC antagonists in infected red cells, primary screen, cell-based, P. falciparum Indochina, OD700, 18 h (AID 1157)
conditionSummary: P. falciparum Indochina infected erythrocytes, osmotic lysis OD700, 18 h; higher = more signal, called active from +8 up or from −8 down
Each entry below lists one item and its recorded z-score value.
API note: the answer field is a bare number with no unit suffix.

Some solved cases for reference:
>>> reportedvalue("CC1CC/C=C\\[C@H]2OC34C=CCN(CCN5CCOCC5)C(=O)[C@H]3N(C(CO)C(C)C)C(=O)[C@@H]4C2C(=O)O1 (some centres not stated)")
0.233
>>> reportedvalue("C=CC[C@]1(C(N)=O)N=C(c2ccc(OCCCO)cc2)O[C@H]1c1ccccc1N=[N+]=[N-]")
9.7
>>> reportedvalue("C=CCNC(=O)[C@@H]1[C@H]2C(=O)O[C@H](c3ccccc3)[C@H](c3ccccc3)N2[C@H](c2ccc(OCCO)cc2)[C@@]12C(=O)Nc1ccc(C#CC3=CCCCC3)cc12")
1.87
>>> reportedvalue("COc1ccc([Si](C)(C)[C@H]2[C@H](CC(=O)N(CCO)Cc3ccccc3)O[C@@]3(C(=O)N(Cc4ccc(N5C(=O)c6cccc7cccc5c67)cc4)c4ccccc43)[C@@H]2C)cc1")
1.48
>>> reportedvalue("C#CCN(C(=O)OC(C)(C)C)[C@H](CO)c1ccccc1")
0.133

Query: I would be grateful if you could share the reported z-score for COC(=O)C(CC#Cc1ccc2c(c1)[C@]1(C(=O)N2)[C@H](C(N)=O)[C@H]2C(=O)O[C@H](c3ccccc3)[C@H](c3ccccc3)N2[C@@H]1c1ccccc1OCCO)C(=O)OC .
Result: 1.47

Query: I would be grateful if you could share the reported z-score for COC(=O)Cn1c(C(=O)N(C)C)cc2c1C[C@H]1CN(C(=O)c3ccccc3)[C@@](Cc3ccccc3)(C(=O)OC)[C@@H]21 .
Result: -1.31

Query: I would be grateful if you could share the reported z-score for COC(=O)C(CC#Cc1ccc2c(c1)[C@]1(C(=O)N2)[C@H](c2ccccc2OCCO)N2[C@H](c3ccccc3)[C@H](c3ccccc3)OC(=O)[C@H]2[C@@H]1C(=O)N1CCN(c2ncccn2)CC1)C(=O)OC .
Result: 0.565

Query: I would be grateful if you could share the reported z-score for COc1ccc(CCNC(=O)[C@@H]2c3ccccc3C(=O)N(Cc3cc(F)cc(C(F)(F)F)c3)[C@H]2c2ccc(CO)cc2)cc1 .
Result: 0.0614

Query: I would be grateful if you could share the reported z-score for COC(=O)[C@@]1(Cc2ccc(F)cc2)[C@H]2c3cc(C(=O)N(C)C)n(Cc4cccc5ccccc45)c3C[C@H]2CN1C(=O)c1ccccc1 .
Result: 1.28

Query: I would be grateful if you could share the reported z-score for COC(=O)C1=CC(c2ccc(CO)cc2)=CC(C2CC2)N(Cc2cc3c(cc2Br)OCO3)C=C1C(=O)OC (configuration not stated) .
Result: 0.572

Query: I would be grateful if you could share the reported z-score for COCCCNC(=O)[C@]1(Cc2ccccc2CN=[N+]=[N-])N=C(c2ccc(OCCCO)cc2)O[C@@H]1c1ccccc1N=[N+]=[N-] .
Result: 8.54

Query: I would be grateful if you could share the reported z-score for COC(=O)c1ccc(OC)c(/C=C\CC(OC(=O)c2ccncc2)c2ccccc2)c1 (configuration not stated) .
Result: -1.02

Query: I would be grateful if you could share the reported z-score for CCOC(=O)C[C@H]1[C@H](OC(=O)c2cc3ccccc3oc2=O)[C@@H](NC(=O)c2ccc(-c3ccccc3)cc2)c2cc(OCCCO)ccc2N1C(=O)Cc1ccc(OC)cc1 .
Result: 1.04

Query: I would be grateful if you could share the reported z-score for CC(C)C[C@H]1NC(=O)CNC(=O)[C@@]23C(=O)N[C@@H](Cc4ccccc4)C2[C@H](C)[C@@]2(C)O[C@H]2C3/C=C/C/C=C\CNC1=O (some centres not stated) .
Result: -0.0621

Query: I would be grateful if you could share the reported z-score for C=CCNC(=O)[C@@H]1[C@H]2C(=O)O[C@H](c3ccccc3)[C@H](c3ccccc3)N2[C@H](c2ccc(OCCO)cc2)[C@@]12C(=O)N(C(=O)OCCOC)c1ccccc12 .
Result: 0.442

Query: I would be grateful if you could share the reported z-score for [N-]=[N+]=NCc1ccccc1C[C@]1(C(=O)N2CCCCC2)COC(c2ccc(OCCCO)cc2)=N1 .
Result: 2.11

Query: I would be grateful if you could share the reported z-score for COc1ccc([Si](C)(C)[C@H]2[C@H](CC(=O)N(CCO)Cc3ccccc3)O[C@@]3(C(=O)N(Cc4cccc(N5CCCCC5=O)c4)c4ccccc43)[C@@H]2C)cc1 .
Result: -0.553

Query: I would be grateful if you could share the reported z-score for O=C1OC[C@@H](c2ccccc2)n2cc(/C=C/c3ccccc3)cc21 .
Result: -1.8

Query: I would be grateful if you could share the reported z-score for C=CCC(OC(C)=O)[C@@H]1[C@@H](N(Cc2cccc3ccccc23)C(=O)c2ccc(C)cc2)c2cc(OCCCO)ccc2N1C(=O)Cc1ccc2ccccc2c1 (some centres not stated) .
Result: -1.2

Query: I would be grateful if you could share the reported z-score for CCCCC(=C=CC[C@H](O)c1cccc(OCCO)c1)C[C@H](O)c1cc(Cl)cc(Cl)c1O .
Result: 1.48
